tested target: HLA-A*31:01
experimental protocol: IEDB peptide-MHC binding, purified MHC/competitive/radioactivity; filed as Kd, often an IC50 or EC50 that approximates it; bounds were set here for any values at or beyond the usual limits of such assays
particulars: source organism: Mammarenavirus juninense
measured parameter: Kd

stdin: Could you tell me which Kd is on file for `EKYGHLCKYH` ?
stdout: ≥ 70 µM

----------
tested target: HLA-B*40:01
experimental protocol: IEDB peptide-MHC binding, purified MHC/direct/fluorescence; filed as Kd, often an IC50 or EC50 that approximates it; bounds were set here for any values at or beyond the usual limits of such assays
particulars: source organism: H9N2 subtype Influenza A virus (A/swine/Korea/S81/2004(H9N2))
pKd: −log10 of the molar value.
measured parameter: pKd

stdin: So what pKd did `KAVRGDLNF` get with HLA-B*40:01?
stdout: ≤ 4.70

Reference source: the Immune Epitope Database (IEDB)
